The entries below are paired with their reported pKi.
Experiment: Inhibitory constant for [3H]YM-09151-2 binding to Dopamine receptor D2-like in porcine striatal membranes
Assay type: cell membranes, Sus scrofa, Striatum, Membrane
Note on units: pKi is unitless, being -log10 of a concentration expressed in mol/L.

CN[C@@H]1Cc2cc(O)c(F)cc2[C@H]1c1ccccc1: 5.37
N[C@@H]1Cc2cc(O)c(F)cc2[C@H]1c1ccccc1: 4.82
CCCN(CCC)[C@@H]1Cc2cc(F)c(O)cc2[C@H]1c1ccccc1: 6.04
C=CCN(C)[C@@H]1Cc2cc(F)c(OC)cc2[C@H]1c1ccccc1: 6.19
C=CCN(C)[C@@H]1Cc2cc(OC)c(F)cc2[C@H]1c1ccccc1: 6.51

Prompt line: Name the recorded pKi for CCCN(CCC)[C@@H]1Cc2cc(O)c(F)cc2[C@H]1c1ccccc1 .
Response line: 4.92

Prompt line: What pKi value was documented for this molecule, N[C@@H]1Cc2cc(F)c(O)cc2[C@H]1c1ccccc1 ?
Response line: 4.72

Prompt line: Suppose we examine the molecule CN[C@@H]1Cc2cc(F)c(O)cc2[C@H]1c1ccccc1 ; what pKi value has been reported?
Response line: 5.29

Prompt line: Can you look up the measured pKi of CCCN(C)[C@@H]1Cc2cc(F)c(OC)cc2[C@H]1c1ccccc1 for me?
Response line: 6.32

Prompt line: Find the recorded pKi belonging to C=CCN(C)[C@@H]1Cc2cc(O)c(F)cc2[C@H]1c1ccccc1 and report it.
Response line: 6.19

Prompt line: # lookup: pKi of CCCN(CCC)[C@@H]1Cc2cc(F)c(OC)cc2[C@H]1c1ccccc1
Response line: 6.77

###

Species on record: Rattus norvegicus
Assay: Amount of cAMP level in rat neostriatal membranes after incubation at 100 uM
Type: functional
Reported Endpoint: cAMP content (pmol/mg protein)
Output: the number by itself.

Study these solved cases before continuing.
CCCN(C)[C@@H]1Cc2cc(OC)c(F)cc2[C@H]1c1ccccc1: 84.6
CCCN(C)[C@@H]1Cc2cc(F)c(O)cc2[C@H]1c1ccccc1: 74.4
CCCN(CCc1ccccc1)CCc1cccc(O)c1: 79.3

Prompt line: Look up cAMP content (pmol/mg protein): NCCc1ccc(O)c(O)c1
Response line: 85.6

###

The compounds listed here are annotated with their cAMP content (pmol/mg protein).
Species on record: Rattus norvegicus
Test: Amount of cAMP level in rat neostriatal membranes after incubation at 10 uM
Assay type: functional
Response field accepts a number only; no unit should be typed.

Example entries begin here.
NCCc1ccc(O)c(O)c1: 89.8
CCCN(C)[C@@H]1Cc2cc(OC)c(F)cc2[C@H]1c1ccccc1: 103
CCCN(C)[C@@H]1Cc2cc(F)c(O)cc2[C@H]1c1ccccc1: 93

Prompt line: Data request, read-out cAMP content (pmol/mg protein), for CCCN(CCc1ccccc1)CCc1cccc(O)c1
Response line: 93.1

###

Assay: Inhibitory constant for [3H]YM-09151-2 binding to Dopamine receptor D2-like in porcine striatal membranes
Format: cell membranes, Sus scrofa, Striatum, Membrane
Reported Endpoint: pKi
Friendly reminder that pKi comes from taking -log10 of the concentration in mol/L.

COc1cc2c(cc1F)[C@@H](c1ccccc1)[C@H](N)C2: 4.92

Prompt line: Look up pKi: CCCN(CCC)[C@@H]1Cc2cc(OC)c(F)cc2[C@H]1c1ccccc1
Response line: 6.26

Prompt line: Recorded pKi for COc1cc2c(cc1F)C[C@@H](N(C)C)[C@@H]2c1ccccc1 , please?
Response line: 5.72

###

Test: Inhibitory constant for [3H]YM-09151-2 binding to Dopamine receptor D2-like in porcine striatal membranes
Assay type: cell membranes, Sus scrofa, Striatum, Membrane
Reported Endpoint: log10(Ki) (log10 of the value in nM)
Annotation: log10 of Ki, nM basis.

Prompt line: What measured log10(Ki) goes with CCCN(C)[C@@H]1Cc2cc(O)c(F)cc2[C@H]1c1ccccc1 ?
Response line: 2.38

Prompt line: Could you share which log10(Ki) value was measured for CCCN(C)[C@@H]1Cc2cc(F)c(O)cc2[C@H]1c1ccccc1 ?
Response line: 2.81

Prompt line: Any idea what log10(Ki) was measured for CCCN(C)[C@@H]1Cc2cc(OC)c(F)cc2[C@H]1c1ccccc1 ?
Response line: 2.43

Prompt line: Bench note: what log10(Ki) did C=CCN(C)[C@@H]1Cc2cc(F)c(O)cc2[C@H]1c1ccccc1 show?
Response line: 2.98

Prompt line: Would you kindly share the measured log10(Ki) for CN(C)[C@@H]1Cc2cc(F)c(O)cc2[C@H]1c1ccccc1 ?
Response line: 3.65

###

Experiment: Inhibitory constant for [3H]YM-09151-2 binding to Dopamine receptor D2-like in porcine striatal membranes
Format: cell membranes, Sus scrofa, Striatum, Membrane
Reported Endpoint: Ki (µM)
Give a bare numeral; the unit µM is implied.

Examples with their reported Ki follow.
COc1cc2c(cc1F)C[C@@H](N)[C@@H]2c1ccccc1: 17
CN[C@@H]1Cc2cc(OC)c(F)cc2[C@H]1c1ccccc1: 3.1
COc1cc2c(cc1F)[C@@H](c1ccccc1)[C@H](N(C)C)C2: 4.3

Please find the next molecule below.
Prompt line: Ki for CN[C@@H]1Cc2cc(F)c(OC)cc2[C@H]1c1ccccc1 ?
Response line: 2.6
